experiment: Neurotoxicity in rats (positional sense test and gait stance test), p.o.; conditions: rat, in vivo, po
Counter-ions that a name gives are not always drawn.
measured_property: TD50

Just so you know, measured TD50 for CC(=O)NC1CCc2cccc(C)c21 (racemic) [Example 20, (rac)-7-Methyl-N-acetyl-1-aminoindan] came out at > 50 mg/kg

Record C#CCNC1CCc2ccc(F)cc21 (centres unmarked) , field TD50: > 50 mg/kg

TD50 for c1ccc2c(c1)CCC2NC1CCc2ccccc21 (racemic) [Example 43, (rac)-M,N-Di-(1-indanyl)amine.HCl] is > 50 mg/kg

So, COc1ccc2c(c1OC)CCC2N (racemic) [Example 31, (rac)-4,5-Dimethoxy-1-aminoindan.HCl] ? Its TD50 was > 50 mg/kg

Note to self: TD50 recorded for NC(=O)CN[C@@H]1CCc2ccccc21 [Example 1, (R)-N-(2-Aeetamido)-1-aminoindan.HCl] was > 50 mg/kg

Briefly, TD50 measured for CC(=O)N[C@H]1CCc2ccccc21 [Example 19, (S)-N-Acetyl-1-aminoindan] : > 500 mg/kg

Entry COc1ccc2c(c1OC)CC[C@H]2NC(C)=O [Example 21, (R)-4,5-Dimethoxy-N-acetyl-1-aminoindan] , TD50 reported as > 500 mg/kg

The reported TD50 of the compound N[C@H]1CCc2ccccc21 [SAI, (S)-1-aminoindan] was > 500 mg/kg

Form field TD50, entry C[C@@H]1Cc2ccccc2[C@H]1N [Example 39, (rac)-trans-2-Methyl-1-aminoindan.HCl] : > 50 mg/kg

Documented TD50 of CCCC(=O)NC1CCc2ccccc21 (racemic) [Example 11, (rac)-N-Butyryl-1-aminoindan] : > 50 mg/kg

Reported TD50 of NC1CCc2ccccc21 (racemic) : > 168 mg/kg

* * *

test system: mechanically dissociated neonatal rat cerebellum; assay: Reversal of NMDA induced cell death in cultures of neonatal rat cerebellum; assay type: cell-based; settings: 0.005 µM + NMDA; Cell Survival minus the NMDA effect
Counter-ions that a name gives are not always drawn.
Just a reminder that ties go to not fulfilled: only PERCENT PROTECTION strictly below 50% counts as fulfilled.

q: Does this compound meet the criterion PERCENT PROTECTION < 50%? CC(=O)N[C@H]1CCc2ccccc21 [Example 19, (S)-N-Acetyl-1-aminoindan]
a: fulfilled

q: # TODO verify PERCENT PROTECTION < 50% strictly for this compound: N[C@@H]1CCc2ccc(F)cc21 [J, (R)-6-fluoro-1-aminoindan]
a: not fulfilled

q: # TODO verify PERCENT PROTECTION < 50% strictly for this compound: Cl.N[C@@H]1CCc2ccc(O)cc21 [Example 35, (R)-6-Hydroxy-1-aminoindan.HCl]
a: fulfilled

q: Take the compound NC(=O)CN[C@H]1CCc2ccccc21 [Example 2, (S)-N-(2-Acetamido)-1-aminoindan.HCl] and say whether its PERCENT PROTECTION is less than 50%.
a: fulfilled

* * *

assay: Neurotoxicity in mice (rotorod ataxia test), i.p.; details: mouse, in vivo, ip, MICE TD50, mice; Table 16
Where a name gives a salt, the structure may show the parent alone.
Assignment: determine reported TD50 for the given compounds.
Number in mg/kg, nothing else.

Entry NC(=O)CN[C@H]1CCc2ccccc21 [Example 2, (S)-N-(2-Acetamido)-1-aminoindan.HCl] ; TD50 = 137

The reported TD50 of the compound NC(=O)CNC1CCc2ccccc21 (racemic) [Example 3, (rac)-N-(2-Acetamido)-1-aminoindan.HCl] was 127

GET /value?item= NC(=O)CNC1CCc2ccc(F)cc21 (racemic) &field=TD50 returns 138

Value of TD50 reported for the compound NC(=O)CN[C@@H]1CCc2ccccc21 [Example 1, (R)-N-(2-Aeetamido)-1-aminoindan.HCl] is 198

Looking up CN[C@H]1CCc2ccccc21 [Example 14, (S)-N-Methyl-1-aminoindan.HCl] , I see its TD50 listed as 100

* * *

system: rats; test: Neurotoxicity in rats (positional sense test and gait stance test), p.o.; details: rats, p.o.; Table 16
measured_property: RATS TD50

# compound NC1CCc2ccc(F)cc21 (stereo not drawn) [I, 6-fluoro-1-aminoindan] ; its RATS TD50 = >50 mg/kg

Record N[C@@H]1CCc2ccc(F)cc21 [J, (R)-6-fluoro-1-aminoindan] , field RATS TD50: >50 mg/kg

Form: compound = N[C@@H]1CCc2ccccc21 [R-AI, (R)-1-aminoindan] ; RATS TD50 = 492 mg/kg

The compound COc1ccc2c(c1OC)CC[C@H]2NC(C)=O [Example 21, (R)-4,5-Dimethoxy-N-acetyl-1-aminoindan] showed RATS TD50 equal to >500 mg/kg

So for NC1CCc2ccccc21 (racemic) [A, 1-aminoindan] , the logged RATS TD50 turned out to be >168 mg/kg

// recorded RATS TD50 for Cl.NC(=O)CN[C@@H]1CCc2ccccc21 [D, (R)-Indanylglycinamide-HCl salt] : >180 mg/kg

In plain terms, COc1ccc2c(c1)C(NC(C)=O)CC2 (racemic) [Example 26, (rac) 6-methoxy-N-acetyl-1-aminoindan] has a documented RATS TD50 of >500 mg/kg

Noted for CC(=O)N[C@H]1CCc2ccccc21 [Example 19, (S)-N-Acetyl-1-aminoindan] : its RATS TD50 reads >500 mg/kg

Item: N[C@H]1CCc2ccccc21 [SAI, (S)-1-aminoindan] | RATS TD50: >500 mg/kg

* * *

tested on: rats; assay: Neurotoxicity in rats (positional sense test and gait stance test), p.o.; conditions: rats, p.o.; Table 16
Where a name gives a salt, the structure may show the parent alone.
measured_property: RATS TD50

Per the record, C#CCNC1CCc2ccc(F)cc21 (centres unmarked) has RATS TD50 of >50 mg/kg

For record CN(C)C1CCc2ccccc21 (racemic) [Example 15, (rac)-N,N-Dimethyl-1-aminoindan.HCl] the listed RATS TD50 is >50 mg/kg

Recorded RATS TD50 (compound O=CNC1CCc2ccccc21 (racemic) [Example 8, (rac)-N-Formyl-1-aminoindan] ): >500 mg/kg

For record CC(=O)N[C@@H]1CCc2ccccc21 [Example 18, (R)-N-Acetyl-1-aminoindan] the listed RATS TD50 is >500 mg/kg

Short answer for NC(=O)CN[C@@H]1CCc2ccccc21 [Example 1, (R)-N-(2-Aeetamido)-1-aminoindan.HCl] : RATS TD50 was >50 mg/kg

// CC(=O)N[C@@H]1CCc2ccc(F)cc21 [Example 23, (R)-6-Fluoro-N-acetyl-1-aminoindan] : RATS TD50 value = >500 mg/kg

Item: CN[C@H]1CCc2ccccc21 [Example 14, (S)-N-Methyl-1-aminoindan.HCl] | RATS TD50: >142 mg/kg

Sample NC(=O)CN[C@H]1CCc2ccccc21 [Example 2, (S)-N-(2-Acetamido)-1-aminoindan.HCl] ; RATS TD50 observed: >500 mg/kg

* * *

test: in vivo; settings: mouse, in vivo, ip, MICE TD50
Criterion: TD50 strictly less than 90 mg/kg. Met: YES. Not met: NO.

q: Quick check: TD50 of CC(=O)N[C@H]1CCc2ccccc21 [Example 19, (S)-N-Acetyl-1-aminoindan] under 90 mg/kg?
a: YES

q: Lab log: compare recorded TD50 with 90 mg/kg; is it strictly lower for CC(=O)NC1CCc2cccc(C)c21 (racemic) [Example 20, (rac)-7-Methyl-N-acetyl-1-aminoindan] ?
a: NO

q: TD50 under 90 mg/kg? Item: NC1CCc2ccc(F)cc21 (stereo not shown) [I, 6-fluoro-1-aminoindan]
a: YES

q: Confirm or reject: TD50 of CC(=O)N[C@@H]1CCc2ccc(F)cc21 [Example 23, (R)-6-Fluoro-N-acetyl-1-aminoindan] lies strictly below 90 mg/kg
a: NO

q: In the record for O=C(NC1CCc2ccccc21)c1ccccc1 (racemic) [Example 46, (rac)-N-Benzoyl-1-aminoindan] , is TD50 less than 90 mg/kg?
a: NO

q: Could you please tell me whether TD50 recorded for N[C@@H]1CCc2ccc(F)cc21 [J, (R)-6-fluoro-1-aminoindan] is less than 90 mg/kg?
a: YES

q: Identify whether the compound COc1ccc2c(c1OC)CC[C@H]2NC(C)=O [Example 21, (R)-4,5-Dimethoxy-N-acetyl-1-aminoindan] records TD50 below 90 mg/kg.
a: NO

q: Consider the compound C#CCNC1CCc2ccc(F)cc21 (stereo not shown) [L, 6-fluoro-N-propargyl-1-aminoindan] . Is its TD50 strictly less than 90 mg/kg?
a: NO

q: Strictly below 90 mg/kg in TD50? CC(=O)N[C@@H]1CCc2ccccc21 [Example 18, (R)-N-Acetyl-1-aminoindan]
a: YES

* * *

Field: PROTECTION % OF RESPECTIVE CONTROL. Provide a value for each of the compounds that follow.
Tested on: male ICR albino mice
Assay: Hypobaric hypoxia survival time in mice
Format: in vivo
Conditions: 50 mg/kg ip one hour prior to hypoxia
Protocol: Dessicator B was disconnected and allowed to equilibrate with room air whilst dessicator A was evacuated to a pressure of 100mmHg. […] The survival time from the moment of induction of hypoxia to the time of cessation of respiration was recorded for each mouse for a maximum of 15 minutes after which time room air was reintroduced to dessicator B. Survivors were monitored for signs of lethargy or vitality. […]
Counter-ions that a name gives are not always drawn.
State just the number; it will be interpreted in % OF RESPECTIVE CONTROL.

Looking up N[C@@H]1CCc2ccc(F)cc21 [J, (R)-6-fluoro-1-aminoindan] , I see its PROTECTION % OF RESPECTIVE CONTROL listed as 305

Field PROTECTION % OF RESPECTIVE CONTROL (entry NC1CCc2cccc(O)c21 (racemic) [Example 42, (rac)-7-Hydroxy-1-aminoindan.HCl] ) reads 179

Note to self: PROTECTION % OF RESPECTIVE CONTROL recorded for N[C@@H]1CCc2ccccc21 [R-AI, (R)-1-aminoindan] was 358

Per the record, Cc1cccc2c1C(N)CC2 (racemic) [Example 28, (rac)-7-Methyl-1-aminoindan.HCl] has PROTECTION % OF RESPECTIVE CONTROL of 361

Measured PROTECTION % OF RESPECTIVE CONTROL, COc1ccc2c(c1OC)CC[C@@H]2N.Cl [Example 30, (S)-4,5-Dimethoxy-1-aminoindan, HCl] : 265

Measured PROTECTION % OF RESPECTIVE CONTROL, N[C@H]1CCc2ccccc21 [SAI, (S)-1-aminoindan] : 174

So for C[C@@H]1Cc2ccccc2[C@H]1N [Example 39, (rac)-trans-2-Methyl-1-aminoindan.HCl] , the logged PROTECTION % OF RESPECTIVE CONTROL turned out to be 600

Notebook: Cc1cc(C)c2c(c1)C(C)CC2N.Cl (racemic) [Example 41, (rac)-3,5,7-Trimethyl-1-aminoindan.HCl] , PROTECTION % OF RESPECTIVE CONTROL read as 187

Entry under test: CC(=O)N[C@@H]1CCc2ccccc21 [Example 18, (R)-N-Acetyl-1-aminoindan] . Its PROTECTION % OF RESPECTIVE CONTROL was 271

Record C[C@H]1Cc2ccccc2[C@H]1N [Example 40, (rac)-cis-2-Methyl-1-aminoindan.HCl] . Reported PROTECTION % OF RESPECTIVE CONTROL: 374
